test system: HCT116; experiment: efficacy (fitted maximal change in viability relative to DMSO control); higher = less cytotoxic (negative = loss of viability); details: 48 h;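 further: Luminescence-based viability readout, five doses per compound, normalized against on-plate DMSO and empty-well controls, followed by dose-response curve fitting for every drug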
Structures can show the parent of a compound that is named as a salt.
Respond with condition met for efficacy values of -70% and above, condition not met for values below.

INPUT: efficacy >= -70% for C#Cc1cccc(Nc2ncnc3cc4c(cc23)OCCOCCOCCO4)c1 [Icotinib hydrochloride] ?
OUTPUT: condition met

INPUT: efficacy >= -70% for COC1=CC=CC(=C1/C2=N/CC3=C(N=C(NC4=CC(=C(C=C4)C(O)=O)OC)N=C3)C5=CC=C(Cl)C=C25)F ?
OUTPUT: condition met

INPUT: efficacy >= -70% for COc1cccc2c1C(=O)c1c(O)c3c(c(O)c1C2=O)C[C@@](O)(C(=O)CO)C[C@@H]3O[C@H]1C[C@H](N)[C@@H](O)[C@H](C)O1 [Epirubicin hydrochloride] ?
OUTPUT: condition not met

INPUT: efficacy >= -70% for CN1C(=O)c2sccc2N(C)c2nc(Nc3ccc([S+](N)(=O)[O-])cc3)ncc21 ?
OUTPUT: condition not met

INPUT: efficacy >= -70% for COc1cc2ncnc(Oc3cccc(NC(=O)Nc4cc(C(C)(C)C(F)(F)F)on4)c3)c2cc1OC ?
OUTPUT: condition met

Now examine the next entry.
INPUT: efficacy >= -70% for CN(C)C1=CC=C(C=C1)C(C2=CC=C(C=C2)N(C)C)=C/3\C=C/C(/C=C3)=[N+](C)C [Methylrosaniline chloride] ?
OUTPUT: condition not met
